# Test system: Danio rerio larvae (5 dpf)
# protocol notes: optomotor response to fast red moving lines, difference vs DMSO (percentage points (treated minus DMSO)); higher = more of the behaviour than the DMSO vehicle control
# cond: 10 µM; exposure time: 3 h pre-incubation + 3 h imaging
Where a name gives a salt, the structure may show the parent alone.
measured parameter: optomotor response

Here's what some known entries look like.
Tell us which optomotor response value is on record for CC/C(=C(\c1ccccc1)c1ccc(OCCN(C)C)cc1)c1ccccc1 [Tamoxifen citrate]
-8.84

Please report the measured optomotor response for NS(=O)(=O)c1cc2c(cc1Cl)NC(C1CC3C=CC1C3)NS2(=O)=O (configuration not stated) [Cyclothiazide]
-3.47

Note down optomotor response recorded for Cc1ccsc1C(=CCCN1CCC[C@@H](C(=O)O)C1)c1sccc1C [Tiagabine hydrochloride]
21.7

State its optomotor response: CC(=O)O[C@H]1C(=O)[C@@]2(C)[C@H]([C@H](OC(=O)c3ccccc3)[C@]3(O)C[C@H](OC(=O)[C@H](O)[C@@H](NC(=O)c4ccccc4)c4ccccc4)C(C)=C1C3(C)C)[C@]1(OC(C)=O)CO[C@@H]1C[C@@H]2O
-16.4

Report optomotor response for CNS(=O)(=O)Cc1ccc2[nH]cc(CCN(C)C)c2c1 [Sumatriptan succinate]
-17.2

Determine its reported optomotor response: OC(CNCC(O)C1CCc2cc(F)ccc2O1)C1CCc2cc(F)ccc2O1 (configuration not stated) [Nebivolol hydrochloride]
-19.6

Okay, next one:
Specify measured optomotor response for CC(=O)NC[C@H]1CN(c2ccc(N3CCOCC3)c(F)c2)C(=O)O1 .
5.73
